Test system: MRSP (Methicillin-Resistant Staphylococcus pseudintermedius)
EXPERIMENTAL_DETAILS: MIC against selected strains of MRSP
Format: cell-based
Parameters: key: MIC in μM (visual, first well with no growth)
MEASUREMENT_CONDITIONS: MRSP strain 80279, Table 6
For each of the substances below, state its MR 80279.

q: What MR 80279 value was documented for this substance, 31 (PWCFRVCYRGICYRRCRD; Artificial Antimicrobial peptide) [compound 31] ?
a: 1.6

q: What MR 80279 value was documented for this substance, 105 (KWCFRVCYRGICYRRCRN; Artificial Antimicrobial peptide) [compound 105] ?
a: 1.6

q: What MR 80279 value was documented for this substance, 29 (PKWCFRVCYRGICYRRCRD; Artificial Antimicrobial peptide) [compound 29] ?
a: 0.8

q: What MR 80279 value was documented for this substance, 117 (GWCFYVCYRGICYRRCRD; Artificial Antimicrobial peptide) [compound 117] ?
a: 1.6

q: What MR 80279 value was documented for this substance, 114 (KWCFRVCYRGICYRRCRR; Artificial Antimicrobial peptide) [compound 114] ?
a: 1.6

q: What MR 80279 value was documented for this substance, 115 (GWCFRVCYRGICYRRCND; Artificial Antimicrobial peptide) [compound 115] ?
a: 1.6

q: What MR 80279 value was documented for this substance, 108 (KWCFRVCYGGICYRRCRD; Artificial Antimicrobial peptide) [compound 108] ?
a: 3.1

q: What MR 80279 value was documented for this substance, 102 (KWCFRACYRGICYRRCRD; Artificial Antimicrobial peptide) [compound 102] ?
a: 1.6
